Recorded values, source patent US20040127511A1.

# tested system: MAPKAPK2 (Homo sapiens)
# Sequence (P49137 whole entry, species assumed): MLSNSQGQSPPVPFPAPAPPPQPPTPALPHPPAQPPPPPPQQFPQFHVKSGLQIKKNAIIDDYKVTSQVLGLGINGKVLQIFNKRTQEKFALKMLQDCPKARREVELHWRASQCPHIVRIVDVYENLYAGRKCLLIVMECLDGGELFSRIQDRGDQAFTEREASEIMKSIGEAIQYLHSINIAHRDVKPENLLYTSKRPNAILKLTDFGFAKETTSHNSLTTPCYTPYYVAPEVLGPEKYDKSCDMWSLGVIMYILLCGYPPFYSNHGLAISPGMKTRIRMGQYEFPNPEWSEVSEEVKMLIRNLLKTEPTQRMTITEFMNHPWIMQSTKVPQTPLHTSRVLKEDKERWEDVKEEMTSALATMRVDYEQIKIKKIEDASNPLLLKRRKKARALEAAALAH
# method notes: biochemical
# Format: biochemical
Where a name gives a salt, the structure may show the parent alone.
value kind: pIC50
Scale: pIC50 equals -log10([C]), with [C] in mol/L.

query: # query: pIC50 of entry N#Cc1c(N)nc2c(c1N)Cc1ccc(OCCN3CCOCC3)cc1O2 [No. 28, trifluoroacetate]
result: 6.04
